# study.system: T1, GPC3 endogenously expressed on HepG2 cells (UniProt P51654 25-554)
# T1 construct: whole, on cells
# protocol.description: FACS on HepG2 cells;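 also: flow cytometric binding of chimeric antibodies to cells, read as mean fluorescence intensity, EC50 obtained by curve fitting of the MFI data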
Task for the reader: assign each of the following binders its reported pEC50.
Schema: pEC50 number; meaning minus log10 of the concentration expressed in molar units.

IN: Need pEC50 of F3.38.7 human-murine chimeric antibody (antibody, human IgG1, kappa, V domains shown) VH: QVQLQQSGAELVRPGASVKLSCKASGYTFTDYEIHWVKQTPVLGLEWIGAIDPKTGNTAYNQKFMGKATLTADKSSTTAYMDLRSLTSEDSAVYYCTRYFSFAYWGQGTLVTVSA VL: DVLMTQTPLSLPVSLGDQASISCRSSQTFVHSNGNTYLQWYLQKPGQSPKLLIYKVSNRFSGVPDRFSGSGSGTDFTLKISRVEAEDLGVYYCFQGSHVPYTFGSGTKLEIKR , thanks.
OUT: 8.92

IN: Need pEC50 of F1.110.24 human-murine chimeric antibody (antibody, human IgG1, kappa, V domains shown) VH: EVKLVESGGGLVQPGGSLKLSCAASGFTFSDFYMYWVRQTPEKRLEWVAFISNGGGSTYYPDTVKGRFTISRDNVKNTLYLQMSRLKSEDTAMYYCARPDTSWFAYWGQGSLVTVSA VL: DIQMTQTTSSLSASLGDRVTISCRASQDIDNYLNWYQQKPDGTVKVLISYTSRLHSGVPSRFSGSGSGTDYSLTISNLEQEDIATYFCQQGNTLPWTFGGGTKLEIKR , thanks.
OUT: 9.08

IN: Need pEC50 of F2.39.2 human-murine chimeric antibody (antibody, human IgG1, kappa, V domains shown) VH: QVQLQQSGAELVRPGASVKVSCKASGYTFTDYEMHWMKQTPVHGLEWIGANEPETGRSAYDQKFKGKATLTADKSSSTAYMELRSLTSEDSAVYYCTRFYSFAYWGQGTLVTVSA VL: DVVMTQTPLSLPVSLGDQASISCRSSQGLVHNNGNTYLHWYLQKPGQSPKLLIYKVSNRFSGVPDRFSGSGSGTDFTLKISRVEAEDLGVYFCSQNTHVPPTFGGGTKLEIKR , thanks.
OUT: 9.02
